Where these numbers come from: PubChem BioAssay (NCI)

# System: MCF7 breast
# protocol.notes: NCI-60 one-dose screen, 48 h (100 = growth as untreated, 0 = no growth, -100 = all killed)
# test.parameters: 10 µM
# Experimental: Growth inhibition of the MCF7 human tumor cell line is measured as a screen for anti-cancer activity. Cells are grown in 96 well plates and exposed to the test compound for 48 hours. Compounds are tested at a single concentration, which is 10^-5 M for most compounds. The reported endpoint is percent growth (GI% or GIPRCNT), where numbers from 0 - 100% represent growth inhibition, and numbers from -100% - 0 represent cell death. For example, a value of 40 represents 60% growth inhibition. […]
This is part of a sample that, as a whole, favours compounds with a hit. Of some 83,000 tested, about 20% had one in any assay.
measured.metric: growth (%)
Report the value in % with no unit label.

Worked examples follow.
{"molecule": "COc1cc(C2CC(c3ccc4c(c3)OCO4)=NN2c2ccccc2)cc(OC)c1OC (stereo unspecified)", "target.entity": "MCF7 breast", "growth (%)": 87.4}
{"molecule": "CCCCCCCCCCCCCCCCCC[n+]1ccc2c(C)c3c(c(C)c2c1)c1cc(O)ccc1n3CC", "target.entity": "MCF7 breast", "growth (%)": 28.3}
{"molecule": "COC(=O)CC[C@@H](C)[C@H]1CC[C@H]2[C@@H]3CC[C@@H]4C[C@H](O)CC[C@]4(C)[C@H]3C[C@H](O)[C@]12C", "target.entity": "MCF7 breast", "growth (%)": 84.8}
{"molecule": "O=C(Nc1cccc2c1CCCC2)c1cc2ccccc2cc1O", "target.entity": "MCF7 breast", "growth (%)": 62.6}
{"molecule": "CN(C)CCOc1ccccc1NC1=C(Cl)C(=O)C(Nc2ccccc2OCCN(C)C)=C(Cl)C1=O", "target.entity": "MCF7 breast", "growth (%)": -53.9}
{"molecule": "NC(=O)c1cccc(-n2ccc3cc(NC(=O)Nc4ccc(Cl)c(C(F)(F)F)c4)ccc32)n1", "target.entity": "MCF7 breast", "growth (%)": 43.8}

Would you mind telling me what growth value was observed for CCc1c2c(nc3ccc(OC(=O)N4CCC(N5CCCCC5)CC4)cc13)-c1cc3c(c(=O)n1C2)COC(=O)[C@]3(O)CC ?
3.64

Give its growth value. Item: C1CN(CC2CCC(CN3CCOCC3)O2)CCO1 (stereo unspecified)
53.2

====

# System: HCC-2998 colon
# protocol.notes: NCI-60 one-dose screen, 48 h (100 = growth as untreated, 0 = no growth, -100 = all killed)
# test.parameters: 10 µM
# Procedure: Growth inhibition of the HCC-2998 human tumor cell line is measured as a screen for anti-cancer activity. Cells are grown in 96 well plates and exposed to the test compound for 48 hours. Compounds are tested at a single concentration, which is 10^-5 M for most compounds. The reported endpoint is percent growth (GI% or GIPRCNT), where numbers from 0 - 100% represent growth inhibition, and numbers from -100% - 0 represent cell death. For example, a value of 40 represents 60% growth inhibition. […]
Compounds without any hit were thinned out: in the full panel of roughly 83,000, 20% have a hit.
The reader will find reported growth values listed item by item below.
Only the number, expressed in %, is required.

Solved cases below.
{"compound": "NS(=O)(=O)c1ccc(Br)cc1", "target.entity": "HCC-2998 colon", "growth / %": 108}
{"compound": "CN1CCN(C2=Nc3ccccc3Oc3ccc(Cl)cc32)CC1", "target.entity": "HCC-2998 colon", "growth / %": 116}
{"compound": "O=C1c2c(c(=O)[nH]c3ccccc23)CCN1Cc1ccccc1", "target.entity": "HCC-2998 colon", "growth / %": 111}
{"compound": "Oc1cccc(-c2nc3sccn3c2-c2ccncn2)c1", "target.entity": "HCC-2998 colon", "growth / %": 111}
{"compound": "COc1cc2cc(Oc3ccc(NC(=O)Nc4ccc(Cl)c(C(F)(F)F)c4)cc3)c(C)nc2cc1OC", "target.entity": "HCC-2998 colon", "growth / %": -13.1}

Which growth is listed for COc1ccc2nc3cc(Cl)ccc3c(N)c2c1 ?
-99

Quick one: growth for COc1nc2c(c(=O)n1C)CN(c1ccccc1)C(=O)C(C)N2 (configuration not stated) ?
94.5

For the compound shown here, COc1cc(-c2nn(-c3cccc(NC(=O)CCN4CCN(c5ccccc5)CC4)c3)cc2-c2ccncc2)ccc1Cl , give the reported growth.
28.5

Quick check: growth of C=CCN(CC=C)C(=O)[C@H](CC)[C@@H]1CC[C@@H](C)[C@@H]([C@H](C)[C@@H](O)[C@@H](C)C(=O)[C@H](CC)C2O[C@]3(C=CC(=O)[C@]4(CC[C@@](C)([C@H]5CC[C@](O)(CC)[C@H](C)O5)O4)O3)[C@H](C)C[C@@H]2C)O1 (some centres not stated) ?
26.5

// lookup growth for Cn1cnc([N+](=O)[O-])c1/C=C1\Oc2ccc(Br)cc2C1=O
101

Query: growth; subject: Cn1c2ccccc2c2c3[nH][nH]c(=O)c3c3c4ccccc4[nH]c3c21
26.5

I have this compound here, CC[N+](CC)=c1ccc2nc3c(cc(NCc4ccccc4)c4ccccc43)oc-2c1 , and I need its recorded growth.
-94.8

For the compound Nc1ccccc1NC(=O)c1ccc(CCCC(=O)Nc2ccc(C3CC3N)cc2)cc1 (configuration not stated) , what growth is on record?
19.5

What measured growth goes with CC(=O)N[C@H](C(=O)N[C@@H](CCCNC(=N)N)C(=O)N[C@@H](CCCCN)C(=O)N[C@@H](CCCNC(=N)N)C(=O)NC(C(=O)N[C@@H](CC(C)C)C(=O)N[C@@H](CCCNC(=N)N)C(=O)N[C@@]1(C)CCC/C=C\CCC[C@@](C)(C(=O)N[C@@H](CCCNC(=N)N)C(=O)N[C@@H](CCC(=O)O)C(=O)N[C@@H](CC(C)C)C(=O)N[C@H](C(=O)N[C@@H](CCC(=O)O)C(N)=O)C(C)C)NC(=O)[C@H](CCC(N)=O)NC(=O)[C@H](CC(C)C)NC(=O)[C@H](CC(C)C)NC1=O)[C@@H](C)O)C(C)C (some centres not stated) ?
51.3

What value of growth has been reported for the following compound? C=CCSC(CC)(CC)C(=O)NC
102

For the compound CS(=O)(=O)c1nccc(-c2c(-c3cccc(OCc4ccc(F)cc4)c3)nc3sccn23)n1 , what growth is on record?
-16.3

I have this compound here, CNC(=O)c1cn(C2CC2)c2cc(N3CCN(C(=O)c4cc(OC)c(OC)c(OC)c4)CC3)c(F)cc2c1=O , and I need its recorded growth.
113
